Data origin: patent US10222368B2

Molecular target: mu opiate receptor (MOR) (Rattus norvegicus, UniProt P33535)
Construct: from tissue; host or cells: striatal tissue (membrane preparation)
Sequence (P33535 whole entry): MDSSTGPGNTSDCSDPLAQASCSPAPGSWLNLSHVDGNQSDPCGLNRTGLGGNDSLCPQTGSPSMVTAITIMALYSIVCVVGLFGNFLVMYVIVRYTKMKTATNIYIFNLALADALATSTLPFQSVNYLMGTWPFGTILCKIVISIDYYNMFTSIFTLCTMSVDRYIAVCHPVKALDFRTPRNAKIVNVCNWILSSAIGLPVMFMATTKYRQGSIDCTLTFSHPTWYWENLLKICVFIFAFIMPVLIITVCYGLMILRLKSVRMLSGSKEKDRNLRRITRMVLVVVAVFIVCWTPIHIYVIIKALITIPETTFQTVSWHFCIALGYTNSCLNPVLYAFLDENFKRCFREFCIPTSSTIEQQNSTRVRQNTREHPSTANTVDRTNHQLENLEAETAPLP
Test: MOR agonist activity using [35S]GTPγS binding assay in striatal membranes
Format: biochemical
Details: 0.1 μM compound as agonist; average of two runs
Assignment: determine reported MOR agonist activity ([35S]GTPγS binding to Gαo), preliminary study for the given compounds.
Answers are plain numbers, in %.

// each listed compound needs a value for MOR agonist activity ([35S]GTPγS binding to Gαo), preliminary study
1. C=CCN1CCC2(CC1)OCCN2S(=O)(=O)c1ccc(C)cc1 [Compound 10]
2. O=S(=O)(c1ccc(OC(F)(F)F)cc1)N1CCOC12CCN(CC1CC1)CC2 [Compound 4]
3. C[C@@H](NC(=O)[C@@H](N)Cc1ccc(O)cc1)C(=O)NCC(=O)N(C)[C@@H](Cc1ccccc1)C(=O)NCCO [DAMGO, [D-Ala2, N-MePhe4, Gly-ol]-enkephalin, reference compound]
4. Cc1ccc(S(=O)(=O)N2CCOC23CCN(CC2CC2)CC3)cc1 [Compound C0134M]
5. Cc1ccc(S(=O)(=O)N2CCOC23CCN(CC2CCC2)CC3)cc1 [Compound 9]

[163.1, 133.9, 144.7, 150.7, 156.6]

----------
Biological target: mu opiate receptor (MOR) (Rattus norvegicus)
Construct: from tissue; host or cells: striatal tissue (membrane preparation)
Assay: MOR agonist activity using [35S]GTPγS binding assay in striatal membranes
Type: biochemical
Conditions: 1 μM compound + 1 μM β-FNA (MOR antagonist); striatal membranes
readout: MOR agonist activity, [35S]GTPγS binding, 1 μM + BFNA

molecule: O=S(=O)(c1cccc2cccnc12)N1CCC2(CC1)OCCN2S(=O)(=O)c1cccc2cccnc12 [Compound C0143M]
result: 86.5%
//
molecule: CS(=O)(=O)c1ccc(S(=O)(=O)N2CCOC23CCN(CC2CC2)CC3)cc1 [Compound C0126M]
result: 108.5%
//
molecule: C=CCN1CCC2(CC1)OCCN2S(=O)(=O)c1ccc(OC)cc1 [Compound C0091M]
result: 80.8%
//
molecule: CCN1CCC2(CC1)OCCN2S(=O)(=O)c1ccc(C(C)=O)cc1 [Compound C0094M]
result: 115.3%
//
molecule: CC(=O)c1ccc(S(=O)(=O)N2CCOC23CCN(CC2CC2)CC3)cc1 [Compound C0095M]
result: 107.7%
//
molecule: O=[N+]([O-])c1ccc(S(=O)(=O)N2CCC3(CC2)NCCS3)cc1
result: 59.1%

// each listed molecule needs a value for MOR agonist activity, [35S]GTPγS binding, 1 μM + BFNA
1. CC(=O)c1ccc(S(=O)(=O)N2CCOC23CCNCC3)cc1
2. COc1ccc(S(=O)(=O)N2CCC3(CC2)NCCC(=O)N3)cc1 [Compound C0142M]
3. COc1ccc(S(=O)(=O)N2CCOC23CCCNC3)cc1 (stereo not drawn) [Compound C0145M-3]

1. 156.8%
2. 98.7%
3. 87.0%

// each listed molecule needs a value for MOR agonist activity, [35S]GTPγS binding, 1 μM + BFNA
1. CC(=O)c1ccc(S(=O)(=O)N2CCOC23CCN(C)CC3)cc1 [Compound C0093M]
2. CC(=O)c1ccc(S(=O)(=O)N2CC(CN(C)C)OC23CCNCC3)cc1 (stereo not drawn) [Compound C0118M]
3. O=C1CN(Cc2ccccc2)C2(CCN(CC3CC3)CC2)N1 [Compound C0125M]
4. COc1ccc(S(=O)(=O)N2CCC3(NCCO3)C3CCCCC32)cc1 (stereo not drawn) [Compound C0144M-2]
5. CS(=O)(=O)c1ccc(S(=O)(=O)N2CCOC23CCNCC3)cc1 [Compound C0116M]
6. CCOC(=O)CN1CCC2(CC1)OCCN2S(=O)(=O)c1ccc(C(C)=O)cc1 [Compound C0099M]
7. COc1ccc(NC(=O)N2CCC3(CC2)NCCO3)cc1 [Compound C0151M-2]

1. 44.0%
2. 79.2%
3. 159.7%
4. 125.9%
5. 152.0%
6. 114.7%
7. 212.8%

// each listed molecule needs a value for MOR agonist activity, [35S]GTPγS binding, 1 μM + BFNA
1. O=C1CNC2(CCN(CC3CC3)CC2)N1Cc1ccccc1 [Compound C0124M]
2. COc1ccc(S(=O)(=O)N2CCOC23CCN(CC2CC2)CC3)cc1 [Compound C0090M]

61.4%
41.0%

----------
Target: mu opiate receptor (MOR) (Rattus norvegicus)
Construct: from tissue; host or cells: striatal tissue (membrane preparation)
Test: MOR agonist activity using [35S]GTPγS binding assay in striatal membranes
Type: biochemical
Details: Series C-1; 0.1 μM compound relative to DAMGO (0.1 μM)
Assignment: determine reported % DAMGO (0.1 μM) for the given compounds.
One number for each entry, in %.

Observe how each entry below is paired with its result.
compound: CCCCc1ccc(S(=O)(=O)N2CCC3(CC2)OCCN3S(=O)(=O)c2ccc(CCCC)cc2)cc1 [Compound C0030]
% DAMGO (0.1 μM) (%): 96.0
--
compound: CC(C)c1ccc(S(=O)(=O)N2CCC3(CC2)OCCN3S(=O)(=O)c2ccc(C(C)C)cc2)cc1 [Compound C0007]
% DAMGO (0.1 μM) (%): 46.0
--
compound: CC(=O)Nc1ccc(S(=O)(=O)N2CCC3(CC2)OCCN3S(=O)(=O)c2ccc(NC(C)=O)cc2)cc1 [Compound C0013]
% DAMGO (0.1 μM) (%): 91.0

// each listed compound needs a value for % DAMGO (0.1 μM)
1. CC(=O)c1ccc(C(=O)N2CCC3(CC2)OCCN3C(=O)c2ccc(C(C)=O)cc2)cc1 [Compound C0054]
2. Cc1cccc(S(=O)(=O)N2CCC3(CC2)OCCN3S(=O)(=O)c2cccc(C)c2)c1 [Compound C0014]

47.0
82.0

----------
Target: mu opiate receptor (MOR) (Rattus norvegicus)
Construct: from tissue; host or cells: striatal tissue (membrane preparation)
Test: MOR agonist activity using [35S]GTPγS binding assay in striatal membranes
Format: biochemical
Details: 1 μM compound + 1 μM β-FNA (MOR antagonist); striatal membranes
Assignment: determine reported MOR agonist activity, [35S]GTPγS binding, 1 μM + BFNA for the given compounds.
Give bare numbers, in %.

Observe how each entry below is paired with its result.
compound: O=S(=O)(c1ccccc1Oc1ccccc1)N1CCC2(CC1)NCCO2 [Compound C0149M-2]
number: 93.4
//
compound: CC(=O)c1ccc(S(=O)(=O)N2CC(=O)NC23CCNCC3)cc1 [Compound C0086M]
number: 152.3
//
compound: COc1ccc(S(=O)(=O)N2CCOC23CCN(C)CC3)cc1 [Compound C0088M]
number: 177.1

Which measured MOR agonist activity, [35S]GTPγS binding, 1 μM + BFNA value corresponds to CC(=O)c1ccc(S(=O)(=O)N2CC(CN(C)C)OC23CCN(CC2CC2)CC3)cc1 (stereo not shown) [Compound C0128M] ?
63.9

----------
Biological target: mu opiate receptor (MOR) (Rattus norvegicus, UniProt P33535)
Construct: from tissue; host or cells: striatal tissue (membrane preparation)
Experiment: MOR agonist activity using [35S]GTPγS binding assay in striatal membranes
Type: biochemical
Settings: 1 μM compound as agonist; average of two runs
Description: To assess the mu opiate receptor (MOR) agonist activity of positive compounds from the FLNA screening, compounds were tested in a [^35S]GTPγS binding assay using striatal membranes. […] The immunocomplexes so formed were collected by incubation at 25° C. for 30 minutes with 40 μl of agarose-conjugated protein A/G beads and centrifugation at 5,000×g at 4° C. for 5 minutes. […] The radioactivity in the suspension was determined by liquid scintillation spectrometry.
readout: MOR agonist activity ([35S]GTPγS binding to Gαo), preliminary study (%)
One number for each entry, in %.

Observe how each entry below is paired with its result.
compound: Cc1ccc(S(=O)(=O)N2CCOC23CCN(CC2CCC2)CC3)cc1
number: 197.2

compound: Cc1ccc(S(=O)(=O)N2CCOC23CCN(CC2CC2)CC3)cc1 [Compound C0134M]
number: 224.0

// each listed compound needs a value for MOR agonist activity ([35S]GTPγS binding to Gαo), preliminary study
1. C[C@@H](NC(=O)[C@@H](N)Cc1ccc(O)cc1)C(=O)NCC(=O)N(C)[C@@H](Cc1ccccc1)C(=O)NCCO [DAMGO, [D-Ala2, N-MePhe4, Gly-ol]-enkephalin, reference compound]
2. C=CCN1CCC2(CC1)OCCN2S(=O)(=O)c1ccc(C)cc1
3. O=S(=O)(c1ccc(OC(F)(F)F)cc1)N1CCOC12CCN(CC1CC1)CC2

1. 233.4
2. 191.8
3. 165.2

----------
Biological target: mu opiate receptor (MOR) (Rattus norvegicus, UniProt P33535)
Construct: from tissue; host or cells: striatal tissue (membrane preparation)
Assay: MOR agonist activity using [35S]GTPγS binding assay in striatal membranes
Type: biochemical
Details: Series C-1; 1 μM compound + BFNA relative to DAMGO + BFNA
Mark f for % DAMGO + BFNA values under 6%, and t for everything at or above.

Solved cases (3 shown):
compound: N#Cc1ccc(S(=O)(=O)N2CCC3(CC2)OCCN3S(=O)(=O)c2ccc(C#N)cc2)cc1 [Compound C0008]
assignedClass: f
--
compound: O=S(=O)(c1ccc(OC(F)(F)F)cc1)N1CCC2(CC1)OCCN2S(=O)(=O)c1ccc(OC(F)(F)F)cc1 [Compound C0006]
assignedClass: t
--
compound: CC(C)c1ccc(S(=O)(=O)N2CCC3(CC2)OCCN3S(=O)(=O)c2ccc(C(C)C)cc2)cc1 [Compound C0007]
assignedClass: t

Now consider the entry below.
Dear colleague, could you confirm whether CC(=O)c1ccc(C(=O)N2CCC3(CC2)OCCN3S(=O)(=O)c2ccc(C(C)=O)cc2)cc1 [Compound C0052] has % DAMGO + BFNA at or above 6%?
t
